Parameter pIC50: see the listing below.
- Test system: HT-29 colon carcinoma cells
- Experiment: MTT cell viability assay, HT-29
- Format: cell-based, human
- Condition Parameters: 72 h
pIC50: −log10 of the molar value.
Assay Readout: pIC50

1) CC[PH](CC)(CC)[Au][S]c1nc(N)nc2[nH]cnc12 [Complex 4]    5.24
2) Nc1nc([S][Au][PH](c2ccccc2)(c2ccccc2)c2ccccc2)c2ncn([C@@H]3O[C@H](CO)[C@@H](O)[C@H]3O)c2n1 [Complex 6]    5.51
3) CC[PH](CC)(CC)[Au][S]c1nc([S][Au][PH](CC)(CC)CC)c2nc[nH]c2n1 [Complex 9]    4.95

----------
- Test system: HT-29 colon carcinoma cells
- Experiment: MTT cell viability assay, HT-29
- Format: cell-based, human
- Condition Parameters: 72 h
- Experimental: All complexes stable in solution were investigated for their anti-proliferative effect on nine human cancer cell lines, using the MTT-based cell viability assay. […] Absorbances at 570 nm and 630 nm were measured using a plate reader (Tecan). Background absorbance (630 nm) was subtracted from the formazan signal (570 nm). The resulting absorbance was directly proportional to the amount of viable cells. […] IC50 values were calculated based on a sigmoidal fit model using GraphPad Prism. […]
Assay Readout: IC50 (µM)

1. Nc1nc([S][Au][PH](c2ccccc2)(c2ccccc2)c2ccccc2)c2nc[nH]c2n1    4.4
2. CC[PH](CC)(CC)[Au][S]c1ncnc2c1ncn2[C@@H]1O[C@H](CO)[C@@H](O)[C@H]1O    2.2
3. CC[PH](CC)(CC)[Au][S]c1ncnc2[nH]cnc12    6.4
4. CC[PH](CC)(CC)[Au][S]c1nc(N)nc2c1ncn2[C@@H]1O[C@H](CO)[C@@H](O)[C@H]1O    4.5
5. c1ccc([PH]([Au][S]c2ncnc3[nH]cnc23)(c2ccccc2)c2ccccc2)cc1    8
6. CC(=O)OC[C@H]1O[C@@H]([S-])[C@H](OC(C)=O)[C@@H](OC(C)=O)[C@@H]1OC(C)=O.CCP(CC)CC.[Au+]    2
7. OC[C@H]1O[C@@H](n2cnc3c([S][Au][PH](c4ccccc4)(c4ccccc4)c4ccccc4)ncnc32)[C@H](O)[C@@H]1O    1.2

----------
Measured pIC50 accompanies every entry in the list below.
- Test system: EA.hy926 endothelial hybrid cells
- Experiment: MTT cell viability assay, EA.hy926
- Type: cell-based, human
- Condition Parameters: 72 h
pIC50: −log10 of the molar value.
Assay Readout: pIC50

1) CC[PH](CC)(CC)[Au][S]c1nc(N)nc2[nH]cnc12    5.96
2) Nc1nc([S][Au][PH](c2ccccc2)(c2ccccc2)c2ccccc2)c2ncn([C@@H]3O[C@H](CO)[C@@H](O)[C@H]3O)c2n1    5.42
3) CSc1ncnc2c1ncn2[C@@H]1O[C@H](CO)[C@@H](O)[C@H]1O [6-MMR, 6-methylmercaptopurine riboside, reference compound]    6.96
4) CC[PH](CC)(CC)[Au][S]c1ncnc2[nH]cnc12    5.82

----------
- Test system: MCF-7 mamma carcinoma cells
- Experiment: MTT cell viability assay, MCF-7
- Format: cell-based, human
- Condition Parameters: 72 h, read-out: IC50 MCF7
pIC50: −log10 of the molar value.
Here, each record is paired with measured pIC50 data.
Assay Readout: pIC50

1) Nc1nc([S][Au][PH](c2ccccc2)(c2ccccc2)c2ccccc2)c2ncn([C@@H]3O[C@H](CO)[C@@H](O)[C@H]3O)c2n1    5.24
2) CC[PH](CC)(CC)[Au][S]c1nc(N)nc2[nH]cnc12    4.68
3) CC[PH](CC)(CC)[Au][S]c1nc(N)nc2c1ncn2[C@@H]1O[C@H](CO)[C@@H](O)[C@H]1O    5.00
4) CC(=O)OC[C@H]1O[C@@H]([S-])[C@H](OC(C)=O)[C@@H](OC(C)=O)[C@@H]1OC(C)=O.CCP(CC)CC.[Au+]    5.66
5) OC[C@H]1O[C@@H](n2cnc3c([S][Au][PH](c4ccccc4)(c4ccccc4)c4ccccc4)ncnc32)[C@H](O)[C@@H]1O    5.62
6) CC[PH](CC)(CC)[Au][S]c1ncnc2[nH]cnc12    5.03
7) c1ccc([PH]([Au][S]c2ncnc3[nH]cnc23)(c2ccccc2)c2ccccc2)cc1    4.89
8) CSc1ncnc2c1ncn2[C@@H]1O[C@H](CO)[C@@H](O)[C@H]1O [6-MMR, 6-methylmercaptopurine riboside, reference compound]    7.05
9) CC[PH](CC)(CC)[Au][S]c1ncnc2c1ncn2[C@@H]1O[C@H](CO)[C@@H](O)[C@H]1O    5.68
10) Nc1nc([S][Au][PH](c2ccccc2)(c2ccccc2)c2ccccc2)c2nc[nH]c2n1    5.66

----------
- Test system: HCT-116^wt colon carcinoma cells
- Experiment: MTT cell viability assay, HCT-116wt
- Type: cell-based, human
- Condition Parameters: 72 h
pIC50: −log10 of the molar value.
# reported pIC50; entries follow
Assay Readout: pIC50

1) CC[PH](CC)(CC)[Au][S]c1ncnc2[nH]cnc12    5.20
2) c1ccc([PH]([Au][S]c2ncnc3[nH]cnc23)(c2ccccc2)c2ccccc2)cc1    5.31
3) CSc1ncnc2c1ncn2[C@@H]1O[C@H](CO)[C@@H](O)[C@H]1O [6-MMR, 6-methylmercaptopurine riboside, reference compound]    7.00
4) CC[PH](CC)(CC)[Au][S]c1nc([S][Au][PH](CC)(CC)CC)c2nc[nH]c2n1    4.95
5) Nc1nc([S][Au][PH](c2ccccc2)(c2ccccc2)c2ccccc2)c2nc[nH]c2n1    6.10
6) OC[C@H]1O[C@@H](n2cnc3c([S][Au][PH](c4ccccc4)(c4ccccc4)c4ccccc4)ncnc32)[C@H](O)[C@@H]1O    5.77
7) CC[PH](CC)(CC)[Au][S]c1nc(N)nc2[nH]cnc12    4.60
8) CC[PH](CC)(CC)[Au][S]c1nc(N)nc2c1ncn2[C@@H]1O[C@H](CO)[C@@H](O)[C@H]1O    5.26
9) CC[PH](CC)(CC)[Au][S]c1ncnc2c1ncn2[C@@H]1O[C@H](CO)[C@@H](O)[C@H]1O    5.80
10) Nc1nc([S][Au][PH](c2ccccc2)(c2ccccc2)c2ccccc2)c2ncn([C@@H]3O[C@H](CO)[C@@H](O)[C@H]3O)c2n1    5.26

----------
- Test system: HT-29 colon carcinoma cells
- Experiment: MTT cell viability assay, HT-29
- Assay type: cell-based, human
- Condition Parameters: Homo sapiens, HT-29, 72 h
Assay Readout: IC50

1) Nc1nc2nc[nH]c2c(=S)[nH]1 [6-TG, 6-thioguanine, reference compound]    1200 nM
2) Sc1ncnc2nc[nH]c12 [6-MP, 6-Mercaptopurine, reference compound]    1400 nM

----------
- Test system: EA.hy926 endothelial hybrid cells
- Experiment: MTT cell viability assay, EA.hy926
- Format: cell-based, human
- Condition Parameters: 72 h
# note: exactly 500 nM is not below, so it is f; use t for IC50 strictly under it

1. CC[PH](CC)(CC)[Au][S]c1nc(N)nc2c1ncn2[C@@H]1O[C@H](CO)[C@@H](O)[C@H]1O    f
2. CC[PH](CC)(CC)[Au][S]c1ncnc2c1ncn2[C@@H]1O[C@H](CO)[C@@H](O)[C@H]1O    t
3. CC(=O)OC[C@H]1O[C@@H]([S-])[C@H](OC(C)=O)[C@@H](OC(C)=O)[C@@H]1OC(C)=O.CCP(CC)CC.[Au+]    f
4. OC[C@H]1O[C@@H](n2cnc3c([S][Au][PH](c4ccccc4)(c4ccccc4)c4ccccc4)ncnc32)[C@H](O)[C@@H]1O    t
5. c1ccc([PH]([Au][S]c2ncnc3[nH]cnc23)(c2ccccc2)c2ccccc2)cc1    f

----------
Measured pIC50 of individual entries
- Test system: HeLa cervix carcinoma cells
- Experiment: MTT cell viability assay, HeLa
- Format: cell-based, human
- Condition Parameters: 72 h
pIC50: −log10 of the molar value.
Assay Readout: pIC50

1. Nc1nc([S][Au][PH](c2ccccc2)(c2ccccc2)c2ccccc2)c2nc[nH]c2n1    6.22
2. CC[PH](CC)(CC)[Au][S]c1nc([S][Au][PH](CC)(CC)CC)c2nc[nH]c2n1    4.75
3. CC[PH](CC)(CC)[Au][S]c1nc(N)nc2[nH]cnc12    4.82
4. OC[C@H]1O[C@@H](n2cnc3c([S][Au][PH](c4ccccc4)(c4ccccc4)c4ccccc4)ncnc32)[C@H](O)[C@@H]1O    6.72
5. CC[PH](CC)(CC)[Au][S]c1ncnc2c1ncn2[C@@H]1O[C@H](CO)[C@@H](O)[C@H]1O    6.29
6. CC[PH](CC)(CC)[Au][S]c1ncnc2[nH]cnc12    5.17
7. Nc1nc([S][Au][PH](c2ccccc2)(c2ccccc2)c2ccccc2)c2ncn([C@@H]3O[C@H](CO)[C@@H](O)[C@H]3O)c2n1    5.62
8. CC[PH](CC)(CC)[Au][S]c1nc(N)nc2c1ncn2[C@@H]1O[C@H](CO)[C@@H](O)[C@H]1O    5.62
